system: mice; experiment: General Symptoms (Side Effects) in mice; assay type: in vivo; parameters: key: +++: marked; ++: moderate; +: mild; -: nondetected; details: i.p., observed for 4 hours, central effect
recorded_endpoint: Tremor

CCN1C(=O)CC2(CCN(C)CC2)C1=O [RS-86, reference compound]    +
CON1C(=O)CC2(CCN(C(=O)OCCBr)CC2)C1=O    -
CON1C(=O)CC2(CCNCC2)C1=O    -
CON1C(=O)CC2(CCN(C)CC2)C1=O.Cl    ++

###

system: mice; assay: General Symptoms (Side Effects) in mice; format: in vivo; design: key: +++: marked; ++: moderate; +: mild; -: nondetected; conditions: i.p., observed for 4 hours, central effect
recorded_endpoint: Hypothermia

CON1C(=O)CC2(CCN(C)CC2)C1=O.Cl [Example 1]    -
CON1C(=O)CC2(CCN(C(=O)OCCBr)CC2)C1=O [Example 22]    +
CCN1C(=O)CC2(CCN(C)CC2)C1=O [RS-86, reference compound]    +++
CON1C(=O)CC2(CCNCC2)C1=O [Example 9]    +

The values you see were collected from patent US4804665A.
